# assayName: Stability in human plasma assessed as parent compound remaining at 40 uM measured immediately by LC-MS/MS analysis
# Assay type: ADME, cell-free
# experimentalSetup: read-out: Stability
Hi there, I'd appreciate the recorded remaining at 0 h, 40 µM for every entry that follows.
Give bare numbers, in %.

[[record]]
compound = "CC(C)OC(=O)OC(C)n1c(=O)ccn([C@@H]2O[C@H](CO[P@@](=O)(N[C@@H](C)C(=O)OC(C)C)Oc3ccccc3)[C@@H](O)[C@@]2(C)F)c1=O (some centres not stated)"
propertymeasured = "remaining at 0 h, 40 µM"
unitinfo = "%"
resultnumber = 100


Let us examine a further case.
Request: remaining at 0 h, 40 µM lookup needed for CC(C)COC(=O)n1c(=O)ccn([C@@H]2O[C@H](CO[P@@](=O)(N[C@@H](C)C(=O)OC(C)C)Oc3ccccc3)[C@@H](O)[C@@]2(C)F)c1=O , thanks.
Response: 100

###

# assayName: Metabolic bioavailability in human liver microsomes at 0.1 uM preincubated with MgCl2 for 10 mins followed by NADPH addition measured within 60 mins by LC-MS/MS analysis
# Type: ADME, Microsome
propertyMeasured: Fh at 1 h, 0.1 µM (%)
Give bare numbers, in %.

[[record]]
molecule = "CC(C)OC(=O)OC(C)n1c(=O)ccn([C@@H]2O[C@H](CO[P@@](=O)(N[C@@H](C)C(=O)OC(C)C)Oc3ccccc3)[C@@H](O)[C@@]2(C)F)c1=O (some centres not stated)"
propertymeasured = "Fh at 1 h, 0.1 µM"
unitinfo = "%"
resultnumber = 11.2


Request: Fill in: Fh at 1 h, 0.1 µM of CC(C)COC(=O)n1c(=O)ccn([C@@H]2O[C@H](CO[P@@](=O)(N[C@@H](C)C(=O)OC(C)C)Oc3ccccc3)[C@@H](O)[C@@]2(C)F)c1=O is ___
Response: 1.33

###

# assayName: Cytotoxicity against human HuH7 cells infected with HCV genotype 1b replicon after 72 hrs by CellTiter-Fluor reagent based fluorescence assay
# Type: cell-based, Huh-7
propertyMeasured: CC50 at 72 h

Solved entries (count: 3):
[[record]]
smilesstructure = "CC(C)OC(=O)[C@H](C)N[P@](=O)(OC[C@H]1O[C@@H](n2ccc(OCc3ccccc3)nc2=O)[C@](C)(F)[C@@H]1O)Oc1ccccc1"
result = "> 20 µM"

[[record]]
smilesstructure = "CCNc1nccn([C@@H]2O[C@H](CO[P@@](=O)(N[C@@H](C)C(=O)OC(C)C)Oc3ccccc3)[C@@H](O)[C@@]2(C)O)c1=O"
result = "> 100 µM"

[[record]]
smilesstructure = "C[C@@]1(O)[C@H](O)[C@@H](CO)O[C@H]1n1cc(Cl)nc(C(N)=O)c1=O"
result = "> 100 µM"


Request: Endpoint output: CC50 at 72 h of C=CCNc1ccn([C@@H]2O[C@H](CO[P@@](=O)(N[C@@H](C)C(=O)OC(C)C)Oc3ccccc3)[C@@H](O)[C@@]2(C)F)c(=O)n1 . Value?
Response: > 20 µM

###

So I've got a bunch of molecules here, and I need their half-life at 40 µM values.
# assayName: Half life in human plasma at 40 uM by LC-MS/MS analysis
# Format: ADME, cell-free
Give bare numbers, in h.

[[record]]
molecule = "CC(C)OC(=O)OC(C)n1c(=O)ccn([C@@H]2O[C@H](CO[P@@](=O)(N[C@@H](C)C(=O)OC(C)C)Oc3ccccc3)[C@@H](O)[C@@]2(C)F)c1=O (some centres not stated)"
unitinfo = "h"
resultnumber = 16.4


Kindly review the next molecule as well.
Request: Would you mind telling me what half-life at 40 µM value was observed for CC(C)COC(=O)n1c(=O)ccn([C@@H]2O[C@H](CO[P@@](=O)(N[C@@H](C)C(=O)OC(C)C)Oc3ccccc3)[C@@H](O)[C@@]2(C)F)c1=O ?
Response: 0.3
